Kindly state % Remaining of Initial (n = 1) for each of the entries shown.
# assay procedure: Simulated intestinal fluid (SIF) stability in the presence of various enzymes
# Type: in vitro ADME
# measurement setup: SIF + Chymotrypsin, 120 min, 1 μM
# Experimental: Studies were carried out in simulated intestinal fluid in the presence of various enzymes. Simulated intestinal fluid was prepared by dissolving 6.8 g of monobasic potassium phosphate in 1.0 L of water. Aliquots of this solution were taken and the pH was adjusted to 6.8. Individual enzymes were then spiked into aliquots for each experiment. A DMSO stock was first prepared for the test article. […]
Give the value, in units of %, as a plain number.

Query (compound): CCCCCCCCCCCCCCCC(=O)NCCOC(=O)CCC(=O)OC[C@H]1O[C@@](CO)(O[C@H]2O[C@H](CO)[C@@H](O)[C@H](O)[C@H]2O)[C@@H](O)[C@@H]1O [Compound I-7] ; field requested: % Remaining of Initial (n = 1)
15

Entry CC/C=C\C/C=C\C/C=C\C/C=C\C/C=C\CCCC(=O)OCCNC(=O)CCCCCCCCCCCCCCC [Compound I-5] please
23

Okay, and CCCCC/C=C\C/C=C\CCCCCCCC(=O)OCC(COC(=O)CCC(=O)OCCNC(=O)CCCCCCCCCCCCCCC)OC(=O)CCCCCCC/C=C\C/C=C\CCCCC (centres unmarked) [Compound I-13] ?
15

Now the compound CCCCCCCCCCCCCCCC(=O)NCCOC(=O)CCC(=O)OCC(COC(=O)CCCCCCC)OC(=O)CCCCCCC (centres unmarked) [Compound I-3, PEA-Succinate-Glycerol-Di-Caprylic]
53

Also CCCCCCCCCCCCCCCC(=O)NCCOC(=O)CCC [Compound I-2] , if possible.
58

And what about the compound CCCCCCCCCCCCCCCC(=O)NCCOC(=O)CCC(=O)OCC(O)CO (centres unmarked) [Compound I-9] ?
7.2

How about this compound: CCCCCCCCCCCCCCCC(=O)NCCOC(=O)CCC(=O)OCC(COC(=O)CCC)OC(=O)CCC (centres unmarked) [Compound I-11]
21

Request: CCCCC/C=C\C/C=C\CCCCCCCC(=O)OCCNC(=O)CCCCCCCCCCCCCCC [Compound I-6]
55

###

Kindly supply the reported % Remaining of Initial (n = 1), 10 min values for the records listed here.
# assay procedure: in vitro
# measurement setup: male, Beagle, dog, s9, 10 min, 1 μM
Record the value in %, omitting the unit from your answer.

// % Remaining of Initial (n = 1), 10 min lookup, key: "CCCCCCCCCCCCCCCC(=O)NCCOC(=O)CCC(=O)OC[C@H]1O[C@@](CO)(O[C@H]2O[C@H](CO)[C@@H](O)[C@H](O)[C@H]2O)[C@@H](O)[C@@H]1O"
1.1

Then what about the compound "CC/C=C\C/C=C\C/C=C\C/C=C\C/C=C\CCCC(=O)OCCNC(=O)CCCCCCCCCCCCCCC" ?
50

Entry to check: CCCCCCCCCCCCCCCC(=O)NCCOC(=O)CCC(=O)OCC(COC(=O)CCC)OC(=O)CCC (stereo not shown)
1.8

Try the compound "CCCCCCCCCCCCCCCC(=O)NCCOC(=O)CCC"
36

Next record, please: "CCCCC/C=C\C/C=C\CCCCCCCC(=O)OCCNC(=O)CCCCCCCCCCCCCCC"
54

Also CCCCCCCCCCCCCCCC(=O)NCCOC(=O)CCC(=O)OCC(COC(=O)CCCCCCC)OC(=O)CCCCCCC (stereo not shown) [Compound I-3, PEA-Succinate-Glycerol-Di-Caprylic] ?
46

###

# assay procedure: Liver microsomal stability, rat
# measurement setup: male, Sprague-Dawley, microsomes, Half-life, Rat liver microsomes
observable: half-life at 1 μM (min)
Express the result in min but write the number alone.

Report half-life at 1 μM for C[C@]12CC[C@H]3[C@@H](CCC4=CC(=O)CC[C@@]43C)[C@@H]1CC[C@@H]2O [Testosterone, testosterone, reference compound] please.
1.4

###

# assay procedure: in vitro
# measurement setup: male, Sprague-Dawley, rat, microsomes, Half-life, calculated value in parentheses
I'd appreciate it if you could supply half-life at 1 μM values for the items below.
Answer format reminder: number followed by unit.

I have this compound here, "CCCCCCCCCCCCCCCC(=O)NCCOC(=O)CCC(=O)OC(COC(=O)CCC)COC(=O)CCC" , and I need its recorded half-life at 1 μM.
3.1 min

Thanks! And "CCCCCCCCCCCCCCCC(=O)NCCOC(=O)CCC(=O)OC(CO)CO" ?
2.2 min

Moving on to CCCCCCCCCCCCCCCC(=O)NCCOC(=O)CCC(=O)OCC(O)CO (stereo not drawn)
2.2 min

###

What Concentration (μM) of analyte PEA, 0 min was measured for each of the following?
# assay procedure: in vitro
# measurement setup: both, human, 0 min, 1 μM
Report the figure in µM without appending any unit label.

Looking for the measured Concentration (μM) of analyte PEA, 0 min of "CCCCCCCCCCCCCCCC(=O)NCCOC(=O)CCC(=O)OC[C@H]1O[C@@](CO)(O[C@H]2O[C@H](CO)[C@@H](O)[C@H](O)[C@H]2O)[C@@H](O)[C@@H]1O" , can you help?
0.090

Another: "CCCCCCCCCCCCCCCC(=O)NCCOC(=O)CCC"
0.011

Entry to check: CCCCCCCCCCCCCCCC(=O)NCCOC(=O)CCC(=O)OCC(O)CO (stereo not shown)
0.048

Now try "CC/C=C\C/C=C\C/C=C\C/C=C\C/C=C\CCCC(=O)OCCNC(=O)CCCCCCCCCCCCCCC" .
0

// next record CCCCCCCCCCCCCCCC(=O)NCCOC(=O)CCC(=O)OCC(COC(=O)CCCCCCC)OC(=O)CCCCCCC (stereo not shown) [Compound I-3, PEA-Succinate-Glycerol-Di-Caprylic]
0

Also need CCCCCCCCCCCCCCCC(=O)NCCOC(=O)CCC(=O)OCC(COC(=O)CCC)OC(=O)CCC (stereo not shown) , thanks.
0.018

One more compound: "CCCCC/C=C\C/C=C\CCCCCCCC(=O)OCCNC(=O)CCCCCCCCCCCCCCC"
0.0089

###

# assay procedure: Plasma stability (37° C., pH 7.4), dog
# Type: in vitro ADME, Beagle dog
# measurement setup: dog plasma, test article 1 μM, 37° C., pH 7.4, 60 min
observable: % Remaining of Initial (n = 1), 60 min (%)
Numbers only here, please. The scale is %.

For CCCCCCCCCCCCCCCC(=O)NCCOC(=O)CCC(=O)OCC(COC(=O)CCCCCCC)OC(=O)CCCCCCC (stereo not shown) [Compound I-3, PEA-Succinate-Glycerol-Di-Caprylic] , what is its reported % Remaining of Initial (n = 1), 60 min?
95

Now the molecule CC/C=C\C/C=C\C/C=C\C/C=C\C/C=C\CCCC(=O)OCCNC(=O)CCCCCCCCCCCCCCC [Compound I-5]
87

Moving on to CCCCCCCCCCCCCCCC(=O)NCCOC(=O)CCC [Compound I-2]
54

Same for CCCCC/C=C\C/C=C\CCCCCCCC(=O)OCCNC(=O)CCCCCCCCCCCCCCC [Compound I-6]
34

And CCCCCCCCCCCCCCCC(=O)NCCOC(=O)CCC(=O)OCC(COC(=O)CCC)OC(=O)CCC (stereo not shown) [Compound I-11] ?
18

CCCCCCCCCCCCCCCC(=O)NCCOC(=O)CCC(=O)OCC(O)CO (stereo not shown) [Compound I-9] , same question.
1.2

###

Assign half-life at 1 μM to each entry below.
# assay procedure: Plasma stability (37° C., pH 7.4), human
# Assay type: in vitro ADME
# measurement setup: both sexes, human, plasma, pH 7.4, human plasma, test article 1 μM, 37° C., pH 7.4; read-out: Half-life

Looking for the measured half-life at 1 μM of CCCCCCCCCCCCCCCC(=O)NCCOC(=O)CCC(=O)OCC(O)CO (stereo not shown) , can you help?
3.8 min

What about "CC/C=C\C/C=C\C/C=C\C/C=C\C/C=C\CCCC(=O)OCCNC(=O)CCCCCCCCCCCCCCC" ?
> 120 min

Queued: CCCCCCCCCCCCCCCC(=O)NCCOC(=O)CCC(=O)OCC(COC(=O)CCC)OC(=O)CCC (stereo not shown)
34 min

Now this one: "CCCCCCCCCCCCCCCC(=O)NCCOC(=O)CCC(=O)OC[C@H]1O[C@@](CO)(O[C@H]2O[C@H](CO)[C@@H](O)[C@H](O)[C@H]2O)[C@@H](O)[C@@H]1O"
< 1 min

Same thing, different compound: CCCCCCCCCCCCCCCC(=O)NCCOC(=O)CCC(=O)OCC(COC(=O)CCCCCCC)OC(=O)CCCCCCC (stereo not shown) [Compound I-3, PEA-Succinate-Glycerol-Di-Caprylic]
> 120 min

What do we get for "CCCCC/C=C\C/C=C\CCCCCCCC(=O)OCCNC(=O)CCCCCCCCCCCCCCC" ?
> 120 min

Now consider "CCCCCCCCCCCCCCCC(=O)NCCOC(=O)CCC" and answer again.
> 120 min
